Tested on: L1210 leukemia ip in BDF1 mice, survival T/C
Test: NCI In Vivo Anticancer Drug Screen. Data for tumor model L1210 Leukemia (intraperitoneal) in B6D2F1 (BDF1) mice
Settings: endpoint: mean survival time; dose: 50.0 mg/kg/injection; schedule: Q01DX001 (ip); vehicle: saline; higher = longer survival
Toxic doses and inconclusive results are not listed.
Task for the reader: assign each of the following molecules its reported T/C.

In: # query: T/C of entry `O/N=C/c1ccc(Cl)cc1`
Out: 97 % of control

In: # query: T/C of entry CSc1ccc(C2NC(=O)NC2=O)cc1 (stereo not drawn)
Out: 102 % of control

In: # query: T/C of entry CCOC(=O)N1C(=O)NC(=O)C1c1ccc(OC)cc1 (stereo not drawn)
Out: 91 % of control
